- Target or system: Transcription intermediary factor 1-alpha (Homo sapiens)
- Assay method text: Binding affinity to human partial length TRIM24-phd-bromo (P790 to P977 residues) expressed in Escherichia coli BL21 at 50 uM after 1 hr by BROMOscan assay relative to control
Metric name: Activity (%)
Reply with just the number (in %).

Record excerpt, results attached:
[[record]]
smiles_input = "COc1ccc(Cl)cc1S(=O)(=O)Nc1cc2c(cc1N1CCOCC1)n(C)c(=O)c(=O)n2C"
display_unit = "%"
readout_value = 90

[[record]]
smiles_input = "CCOc1ccccc1C(=O)Nc1cc2c(cc1N1CCC(C)CC1)n(C)c(=O)c(=O)n2C"
display_unit = "%"
readout_value = 91

[[record]]
smiles_input = "Cn1c(=O)c(=O)n(C)c2cc(S(=O)(=O)CCC(=O)NCc3ccccn3)ccc21"
display_unit = "%"
readout_value = 82


Switching to the query record.
Entry under test: Cn1c(=O)c(=O)n(C)c2cc(N3CCOCC3)c(NC(=O)c3ccccc3C(F)(F)F)cc21 . Its Activity was 100
